Source of measurements: patent US20250060376A1

Target: T1, fragment DIR-II (last 27 amino acids of the sequence encoded by the retained intron of DIR) (human)
T1 construct: also called target fragment DIR-II
T1 peptide: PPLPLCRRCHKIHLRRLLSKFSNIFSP
Test: ELISA, DIR-II coated; mAb (1 mg/mL) diluted 1:486k
# maps each entry to its absorbance at 450 nm

Previously resolved entries follow.
{"columns": ["Binder", "absorbance at 450 nm"],
 "data": [
  ["DIR antibody IR-II-7 (antibody, V domains shown, Monoclonal antibody) VH: QVQLQQSGAELMKPGASVKISCKATGYTFSNYWIEWIKQRPGHGLEWIGEILPGSYYSTNYNEKFKDKATFTADTSSNTAYIQLSSLTSEDSAVYYCARSGIITTRGDYFAMDYWGQGTSVTVSS VL: DIVLTQSPASLAVSLGQRATISCKASQSVDYDGDSYMNWYQQKPGQPPKLLMYAASNLESGIPARFSGSGSGTDFTLNIHPVEEEDAATYYCQQSNEDPRTFGGGTKLEIK", "0.121 absorbance (450 nm)"],
  ["DIR antibody IR-II-5 (antibody, V domains shown, Monoclonal antibody) VH: QVQLQQSGAEVMKPGASVKISCKATGYTFSSYWIEWIKQRPGHGLEWIGEILPGGYNTNSNENFKGKATFTADTSSNTAYMQLSSLTSEDSAVYYCARSGMITTTGDYYAMDYWGQGTSVTVSS VL: DIELTQSPASLAVSLGQRATISCKASQSVDYDGESYMNWYQQKPGQPPKLLIYAASNLESGIPARFSGSGSGTDFTLNIHPVEEEDAATYYCQQSNDDPRTFGGGTKLEIK", "0.285 absorbance (450 nm)"]
]}

// switching to the query binder
[ask] Given DIR antibody IR-II-8 (antibody, V domains shown, Monoclonal antibody) VH: QVQLQQSGAELMKPGASVKISCKATGYTFSNYWIEWVKQRPGHGLEWIGEILPGSGSTNYNEKFKGKATFTADTSSNTAYMQLSSLTSEDSAVYYCARSGMITTRGDYFAMDYWGQGTSVTVSS VL: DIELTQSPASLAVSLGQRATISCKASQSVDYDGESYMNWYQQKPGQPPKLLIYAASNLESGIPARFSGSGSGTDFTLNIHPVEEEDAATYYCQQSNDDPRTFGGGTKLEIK , state its recorded absorbance at 450 nm.
[reply] 0.0864 absorbance (450 nm)
